Source listed as paper PMC6199744.

target: GLYCERALDEHYDE 3-PHOSPHATE DEHYDROGENASE, GLYCOSOM (TB427.06.4300) (Trypanosoma brucei brucei, UniProt P22512); test: Multitargeted bead mixture competition; type: binding, T. brucei; settings: multitargeted bead mixture; free ligand 100 μM; T. brucei lysate; TB427.06.4300 GAPDH
Sequence (P22512 whole entry): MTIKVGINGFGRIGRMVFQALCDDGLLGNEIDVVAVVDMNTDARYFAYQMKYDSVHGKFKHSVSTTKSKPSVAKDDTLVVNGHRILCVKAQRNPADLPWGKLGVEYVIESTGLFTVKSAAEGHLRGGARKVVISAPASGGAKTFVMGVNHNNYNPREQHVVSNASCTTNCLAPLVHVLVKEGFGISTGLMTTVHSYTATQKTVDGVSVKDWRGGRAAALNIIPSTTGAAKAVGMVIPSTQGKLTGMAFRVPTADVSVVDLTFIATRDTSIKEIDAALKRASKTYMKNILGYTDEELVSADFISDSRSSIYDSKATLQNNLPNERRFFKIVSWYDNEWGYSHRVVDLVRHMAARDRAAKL
assay endpoint: percentage of competition from bead binding (%)

>  <molecule>
CN(Cc1cnc2nc(N)nc(N)c2n1)c1ccc(C(=O)N[C@@H](CCC(=O)O)C(=O)O)cc1 [MTX, methotrexate]

>  <meas value>
56

$$$$
>  <molecule>
Nc1nc2cccc(-c3ccccc3)c2n1Cc1ccc(Cl)c(Cl)c1 [compound 3]

>  <meas value>
3

$$$$
>  <molecule>
Nc1nc(O)c2c(CCc3ccccc3)c[nH]c2n1 [compound 5]

>  <meas value>
15

$$$$
>  <molecule>
Cc1ccc2nc(N)[nH]c(=O)c2c1Sc1ccncc1 [NTX, nolatrexed]

>  <meas value>
18

$$$$
